# Measured On: UniProt Q72874
# Experiment Notes: Tested for binding affinity against protease
Measurement Label: pKi
Note on units: pKi is unitless, being -log10 of a concentration expressed in mol/L.

Challenge: // returns reported pKi for input Cc1cc(SC2=C(O)OC(CCc3ccccc3)(C(C)C)CC2=O)c(C(C)(C)C)cc1NS(=O)(=O)c1ccc(C(F)(F)F)cc1 (stereo unspecified)
Response given: 7.57

* * *

# Measured On: Human immunodeficiency virus type 1 protease (Human immunodeficiency virus 1, UniProt Q72874)
# Experiment Notes: Tested for binding affinity against HIV protease
Measurement Label: pKi
Note on units: pKi is unitless, being -log10 of a concentration expressed in mol/L.

// worked examples, pKi included
{"columns": ["Compound", "Measurement Label", "Quantitative Result"],
 "data": [
  ["Cc1cc(SC2=C(O)OC(CCc3ccccc3)(C(C)C)CC2=O)c(C(C)(C)C)cc1O (configuration not stated)", "pKi", 8.96],
  ["Cc1cc(SC2=C(O)OC(CCc3ccccc3)(C(C)C)CC2=O)c(C(C)(C)C)cc1OS(=O)(=O)c1ccc(C#N)cc1 (configuration not stated)", "pKi", 9.15],
  ["Cc1cc(SC2=C(O)OC(CCc3ccccc3)(C(C)C)CC2=O)c(C(C)(C)C)cc1NS(C)(=O)=O (configuration not stated)", "pKi", 9.08],
  ["Cc1cc(SC2=C(O)O[C@](CCc3ccc(O)cc3)(C(C)C)CC2=O)c(C(C)(C)C)cc1OS(C)(=O)=O", "pKi", 10.52]
]}

Challenge: // returns reported pKi for input Cc1cc(SC2=C(O)OC(CCc3ccccc3)(C(C)C)CC2=O)c(C(C)(C)C)cc1NS(=O)(=O)c1ccc(C(F)(F)F)cn1 (configuration not stated)
Response given: 8.98

Challenge: // returns reported pKi for input Cc1cc(SC2=C(O)O[C@](CCc3ccccc3)(C(C)C)CC2=O)c(C(C)(C)C)cc1NS(=O)(=O)c1ccc(C(F)(F)F)cn1
Response given: 9.51

Challenge: // returns reported pKi for input Cc1cc(SC2=C(O)O[C@@](CCc3ccccc3)(C(C)C)CC2=O)c(C(C)(C)C)cc1NS(=O)(=O)c1ccc(C(F)(F)F)cn1
Response given: 8.19

Value source: ChEMBL document CHEMBL1132961
